- Test system: KM12 colon
- TEST_DESCRIPTION: NCI tumour cell line growth inhibition, 48 h; in the data active = GI50 below about 0.43 µM; inactive = the rest
Outcomes: active, inactive

>  <MOLECULE>
C#CC#CC#CC#CC#CC#CC#CC#CCC1OC[C@H](COC(=O)O[C@@H](C(=O)O[C@H]2C[C@@]3(O)[C@@H](OC(=O)c4ccccc4)[C@@H]4[C@]5(OC(C)=O)CO[C@@H]5C[C@H](O)[C@@]4(C)C(=O)[C@H](OC(C)=O)C(=C2C)C3(C)C)[C@@H](NC(=O)c2ccccc2)c2ccccc2)O1 (stereo partly specified)

>  <CLASS>
active

$$$$
>  <MOLECULE>
COC(=O)[C@]12CC[C@@H](C)[C@H](C)[C@@H]1C1=CC[C@@H]3[C@@]4(C)C=C(O)C(=O)C(C)=C4CC[C@@]3(C)[C@]1(C)CC2

>  <CLASS>
inactive

$$$$
>  <MOLECULE>
NCC(=O)CCC(=O)O

>  <CLASS>
inactive

$$$$
>  <MOLECULE>
C=C1CO[C@@H]2C[C@@H]1CCC1(C)OC1CC/C(C)=C/CC[C@@]2(C)O (stereo partly specified)

>  <CLASS>
inactive

$$$$
>  <MOLECULE>
Oc1ccc(-c2nc3ccc4[nH]ncc4c3c3c2CCCC3)c2cccnc12

>  <CLASS>
active

$$$$
>  <MOLECULE>
O=C(Nc1ccccc1F)c1ccc(NC2=C(Cl)C(=O)N(Cc3ccccc3)C2=O)cc1

>  <CLASS>
inactive

$$$$

Provenance of the data: PubChem BioAssay (NCI)
